Values compiled from patent US9303016B2.

- TARGET DESC: human full length HSD11β1 (Homo sapiens, UniProt P28845)
- Construct: transient expression of human full length HSD11β1 expression vector
- Sequence (P28845 whole entry): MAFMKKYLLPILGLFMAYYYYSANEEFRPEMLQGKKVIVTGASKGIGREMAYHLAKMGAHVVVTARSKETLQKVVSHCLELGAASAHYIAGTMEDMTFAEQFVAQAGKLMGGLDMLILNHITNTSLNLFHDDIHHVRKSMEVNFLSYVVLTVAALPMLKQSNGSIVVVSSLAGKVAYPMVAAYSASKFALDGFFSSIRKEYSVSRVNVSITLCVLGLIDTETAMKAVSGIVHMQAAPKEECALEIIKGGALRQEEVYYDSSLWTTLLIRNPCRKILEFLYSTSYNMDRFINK
- EXPERIMENT SUMMARY: In Vitro HSD11β1 Inhibition Assay
- TEST CONDITIONS: CHO cells transiently expressing human HSD11β1; 200 nM cortisone+500 uM NADPH overnight; cortisone to cortisol by LC/MS-MS; read-out: 11βHSD1 (IC50)
METRIC NAME: IC50

COMPOUND: O=C(CCc1nc2ccccc2s1)N1C2CC3CC(C2)CC1C3
EXPERIMENTAL VALUE: > 250 nM
//
COMPOUND: CC(CC(=O)N1C2CC3CC1CC(O)(C3)C2)c1c[nH]c2cccc(C3CC3)c12 (stereo not shown) [Example 41]
EXPERIMENTAL VALUE: < 100 nM
//
COMPOUND: COc1ccc2[nH]cc(C(C)CC(=O)N3C4CC5CC3CC(O)(C5)C4)c2c1C (stereo not shown)
EXPERIMENTAL VALUE: > 250 nM

Record CC(CC(=O)N1C2CC3CC1CC(CC(=O)O)(C3)C2)c1c[nH]c2cccc(C3CC3)c12 (stereo not shown) [Compound 152] ; system human full length HSD11β1 (Homo sapiens, UniProt P28845); IC50 = 100 to 150 nM

Record O=C(CC(c1ccc(Cl)cc1)c1c[nH]c2ccccc12)N1C2CC3CC1CC(O)(C3)C2 (stereo not shown) ; system human full length HSD11β1 (Homo sapiens, UniProt P28845); IC50 = > 250 nM
